Target: human Polq polymerase domain (Homo sapiens, UniProt O75417)
Sequence (O75417 1792-2590): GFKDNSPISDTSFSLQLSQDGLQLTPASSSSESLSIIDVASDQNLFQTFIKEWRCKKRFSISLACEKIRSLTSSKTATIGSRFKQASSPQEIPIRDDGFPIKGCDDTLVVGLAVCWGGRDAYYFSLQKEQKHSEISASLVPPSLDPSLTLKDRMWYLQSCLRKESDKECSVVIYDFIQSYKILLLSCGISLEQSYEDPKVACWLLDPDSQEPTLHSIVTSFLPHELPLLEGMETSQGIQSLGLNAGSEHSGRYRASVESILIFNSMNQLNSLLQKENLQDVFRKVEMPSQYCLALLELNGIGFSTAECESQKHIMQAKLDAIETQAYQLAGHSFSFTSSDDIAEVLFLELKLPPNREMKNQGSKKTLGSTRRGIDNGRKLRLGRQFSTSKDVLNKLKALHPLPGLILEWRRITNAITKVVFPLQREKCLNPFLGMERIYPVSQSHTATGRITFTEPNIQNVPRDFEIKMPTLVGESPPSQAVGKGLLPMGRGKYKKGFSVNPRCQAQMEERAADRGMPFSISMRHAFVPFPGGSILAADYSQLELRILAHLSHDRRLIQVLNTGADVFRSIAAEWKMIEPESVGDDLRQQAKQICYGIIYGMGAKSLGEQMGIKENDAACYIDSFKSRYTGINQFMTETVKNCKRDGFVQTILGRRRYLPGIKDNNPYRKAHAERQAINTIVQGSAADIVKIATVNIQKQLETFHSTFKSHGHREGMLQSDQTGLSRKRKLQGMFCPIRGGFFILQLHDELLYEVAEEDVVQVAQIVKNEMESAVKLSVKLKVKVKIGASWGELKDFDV
Test: Cy5 fluorescence assay of Polq polymerase domain inhibition
Assay type: biochemical
Conditions: 5 nM Polq polymerase domain (residues 1792-2590), 60 nM primer-template, 50 uM dNTPs, 37 °C, 18 min; read-out: IC50 (nM) Polq
From the text: The following Cy5 fluorescence assay was used to measure the ability of compounds to inhibit Polq polymerase domain in vitro. […]
Cut-off 30 nM on IC50: below means true, at or above means false.

[[record]]
compound = "CN(C(=O)Oc1c(N2CC[C@H](O)C2=O)cc(C(F)(F)F)cc1C(F)(F)F)c1ccc(F)cc1"
class_label = "true"

[[record]]
compound = "[2H]C([2H])([2H])N(C(=O)Oc1c(N2CCN(C[C@@H](O)CN(C)C)C2=O)cc(C(F)(F)F)cc1C(F)(F)F)c1ccc(F)cc1"
class_label = "true"

[[record]]
compound = "[2H]C([2H])([2H])N(C(=O)Oc1c(N2CCN(CC(O)CNC)C2=O)cc(C(F)(F)F)cc1C(F)(F)F)c1ccc(F)cc1 (centres unmarked)"
class_label = "true"

[[record]]
compound = "CN(C(=O)Oc1c(N2CCNC2=O)cc(C(F)(F)F)cc1C(F)(F)F)c1ccccc1CC#N"
class_label = "false"

[[record]]
compound = "CN(C(=O)Cc1c(N2CCNC2=O)cc(C(F)(F)F)cc1C(F)(F)F)c1ccc(F)cc1"
class_label = "false"


Task item: Regarding CC(O)CN1CCN(c2cc(C(F)(F)F)cc(C(F)(F)F)c2OC(=O)N(C)c2ccc(F)cc2)C1=O (centres unmarked) , kindly confirm whether its IC50 is beneath 30 nM.
Reply: true

Task item: IC50 under 30 nM? Item: CN(C)CC(O)CN1CCN(c2cc(C(F)(F)F)cc(C(F)(F)F)c2OC(=O)N(C)c2ccc(F)cc2)C1=O (centres unmarked)
Reply: true

Task item: Take the compound Cc1cc(C(F)(F)F)cc(N2CCOC2=O)c1OC(=O)N(C)c1ccc(F)cc1 and say whether its IC50 is less than 30 nM.
Reply: false
